- studySystem: human α7 nicotinic acetylcholine receptor (Homo sapiens)
- Sequence (P36544 23-502): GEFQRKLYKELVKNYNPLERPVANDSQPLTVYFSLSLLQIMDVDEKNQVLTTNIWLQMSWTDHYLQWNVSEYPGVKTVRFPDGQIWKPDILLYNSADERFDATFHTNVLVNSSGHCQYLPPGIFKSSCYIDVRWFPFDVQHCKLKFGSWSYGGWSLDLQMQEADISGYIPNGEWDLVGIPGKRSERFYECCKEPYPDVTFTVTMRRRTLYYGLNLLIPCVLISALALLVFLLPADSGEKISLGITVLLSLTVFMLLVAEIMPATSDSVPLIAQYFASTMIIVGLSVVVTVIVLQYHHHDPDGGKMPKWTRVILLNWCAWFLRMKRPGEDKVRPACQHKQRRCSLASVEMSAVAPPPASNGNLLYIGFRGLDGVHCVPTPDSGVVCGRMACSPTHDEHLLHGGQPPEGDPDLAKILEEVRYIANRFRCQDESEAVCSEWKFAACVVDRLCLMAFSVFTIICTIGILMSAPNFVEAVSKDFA
- assayProcedure: Inhibition of acetylcholine induced current in Xenopus Laevis oocytes overexpressing α7 nAChR
Record form. Attribute: IC50. Fill in for each entry.
Express it in µM; write the number only.

Q: Record request: IC50 value, item [2H][C@@](C)(NC(C)(C)C)C(=O)c1cccc(Cl)c1
A: 43.2

Q: Quick check: IC50 of [2H][C@](C)(NC(C)(C)C)C(=O)c1cccc(Cl)c1 ?
A: 28.7

###

- studySystem: dopamine transporter (Rattus norvegicus, UniProt P23977)
- Construct: tissue Cerep, France (assay provider)
- Sequence (P23977 whole entry): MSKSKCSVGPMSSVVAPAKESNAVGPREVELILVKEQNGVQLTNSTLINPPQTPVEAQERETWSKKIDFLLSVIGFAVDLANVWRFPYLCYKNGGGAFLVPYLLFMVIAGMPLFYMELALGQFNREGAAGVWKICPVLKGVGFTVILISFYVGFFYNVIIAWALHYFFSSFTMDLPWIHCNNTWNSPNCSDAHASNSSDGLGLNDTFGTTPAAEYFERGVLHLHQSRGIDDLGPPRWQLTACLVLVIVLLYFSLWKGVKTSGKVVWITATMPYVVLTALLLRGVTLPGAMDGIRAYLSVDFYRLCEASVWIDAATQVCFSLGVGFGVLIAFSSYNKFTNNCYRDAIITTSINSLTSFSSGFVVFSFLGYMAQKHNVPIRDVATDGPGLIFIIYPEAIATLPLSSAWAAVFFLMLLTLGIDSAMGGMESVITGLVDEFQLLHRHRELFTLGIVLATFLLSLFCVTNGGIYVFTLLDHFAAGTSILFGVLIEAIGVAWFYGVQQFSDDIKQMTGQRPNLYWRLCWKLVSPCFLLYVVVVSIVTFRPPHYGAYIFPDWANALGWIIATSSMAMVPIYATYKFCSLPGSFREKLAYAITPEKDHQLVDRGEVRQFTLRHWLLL
- assayProcedure: Inhibition of dopamine uptake in rat striatum synaptosomes
reportedEndpoint: IC50 (nM)
State just the number; it will be interpreted in nM.

Q: Look at this compound and give its reported IC50. [2H][C@@](C)(NC(C)(C)C)C(=O)c1cccc(Cl)c1
A: 420

Q: Given the compound [2H][C@](C)(NC(C)(C)C)C(=O)c1cccc(Cl)c1 , what is its reported IC50?
A: 4200
